# Test system: ANGIOTENSIN II VASOPRESSOR RESPONSE
# Assay Procedure: AII Challenge: blockade of angiotensin II vasopressor response in conscious SHR
# Type: in vivo, rat (Conscious Male Okamoto-Aoki SHR)
# Measurement Context: SHR n=2; 3 mg/kg p.o.; AII 0.1 mcg/kg IV; 60 min post dose
Measured Property: Average Change (systolic blood pressure response to AII)
I'd appreciate it if you wrote the number followed by its unit.

| Molecule | Experimental System | Result |
| --- | --- | --- |
| CCCCc1nc2ccc(C(O)C3CCCN(C)C3=O)cc2c(=O)n1Cc1ccc(-c2ccccc2-c2nn[nH]n2)cc1 (single isomer, unassigned; isomer 1) [Example 37] | ANGIOTENSIN II VASOPRESSOR RESPONSE | 31.5 mmHg |
| CCCCc1nc2ccc(C(O)C3CCCN(C)C3=O)cc2c(=O)n1Cc1ccc(-c2ccccc2-c2nn[nH]n2)cc1 (single isomer, unassigned; isomer 2) [Example 38] | ANGIOTENSIN II VASOPRESSOR RESPONSE | 27.5 mmHg |

The reported Average Change (systolic blood pressure response to AII) of the molecule CCCCc1nc2ccc(C(O)C3CCN(C)C3=O)cc2c(=O)n1Cc1ccc(-c2ccccc2-c2nn[nH]n2)cc1 (single isomer, unassigned; isomer 1) [Example 32] was 27.5 mmHg
